All figures here come from the supplement of paper PMC10883282.

Tested on: HS729
runDescription: relative viability vs DMSO control (72 h) (fraction); higher = more viable cells
experimentalContext: 1.111 µM
Each record is given t if its reported relative viability is strictly below 0.8. Records at or above 0.8 are given f.

Previously resolved entries follow.
>  <lineNotation>
C=CC(=O)Nc1cccc(Oc2nc(Nc3ccc(N4CCN(C)CC4)cc3)nc3ccsc23)c1

>  <testTarget>
HS729

>  <assignedLabel>
f

$$$$
>  <lineNotation>
O=C(Nc1cnn2ccc(N3CCC[C@@H]3c3cc(F)ccc3F)nc12)N1CC[C@H](O)C1

>  <testTarget>
HS729

>  <assignedLabel>
f

$$$$
>  <lineNotation>
O=C(Cc1ccc(-c2ccc(OCCN3CCOCC3)cc2)cn1)NCc1ccccc1

>  <testTarget>
HS729

>  <assignedLabel>
t

$$$$
>  <lineNotation>
C[C@@H]1COCCN1c1cc(-c2ccnn2C)c2ccnc(-c3ccn[nH]3)c2n1

>  <testTarget>
HS729

>  <assignedLabel>
t

$$$$
>  <lineNotation>
CCN1CCN(Cc2ccc(Nc3ncc(F)c(-c4cc(F)c5nc(C)n(C(C)C)c5c4)n3)nc2)CC1

>  <testTarget>
HS729

>  <assignedLabel>
f

$$$$
>  <lineNotation>
COc1cc2nccc(Oc3ccc(NC(=O)Nc4cc(C)on4)c(Cl)c3)c2cc1OC

>  <testTarget>
HS729

>  <assignedLabel>
f

$$$$
>  <lineNotation>
COc1cc2/c(=N/c3ccc(Br)cc3F)nc[nH]c2cc1OCC1CCN(C)CC1

>  <testTarget>
HS729

>  <assignedLabel>
t

$$$$
>  <lineNotation>
CC1(C)CNc2cc(NC(=O)c3cccnc3NCc3ccncc3)ccc21

>  <testTarget>
HS729

>  <assignedLabel>
f

$$$$

Let's switch to this compound now.
Input line: Could you please tell me whether relative viability recorded for Cc1cc(C)c(/C=C2\C(=O)Nc3ccccc32)[nH]1 is less than 0.8?
Output line: t
